Assayed Target: 17-beta-hydroxysteroid dehydrogenase type 3 (Homo sapiens, UniProt P37058)
Sequence (P37058 whole entry): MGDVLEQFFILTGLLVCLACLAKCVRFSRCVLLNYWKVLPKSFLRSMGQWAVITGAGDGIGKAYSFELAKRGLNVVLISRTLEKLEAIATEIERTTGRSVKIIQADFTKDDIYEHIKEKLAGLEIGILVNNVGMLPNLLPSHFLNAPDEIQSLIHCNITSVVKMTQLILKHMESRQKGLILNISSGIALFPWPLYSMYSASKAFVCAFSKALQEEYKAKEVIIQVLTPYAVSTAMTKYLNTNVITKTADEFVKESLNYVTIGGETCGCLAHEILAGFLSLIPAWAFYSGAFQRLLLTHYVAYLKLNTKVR
Assay Details: Inhibition of 17beta-HSD3 in human testes homogenate
Assay type: tissue-based, Testis
Measured Parameter: IC50 (nM)

Structure Notation	Scale Unit	Assay Value
COc1ccc(N2C(=O)/C(=C/c3ccc(O)c(Br)c3)SC2=S)cc1	nM	6

* * *

Listing of entries alongside the reported IC50.
Assayed Target: 17-beta-hydroxysteroid dehydrogenase type 3 (Homo sapiens, UniProt P37058)
Assay Details: Inhibition of human 17beta-HSD3 expressed in HeLa cells assessed as conversion of 4-androstene-3,17-dione to testosterone
Assay type: cell-based
Measurement Conditions: read-out: IC50
Measured Parameter: IC50 (nM)

Compound	Assay Value
COc1ccc(N2C(=O)OC(Cc3ccc(O)c(Br)c3)C2=O)cc1 (stereo not drawn)	300
COc1ccc(N2C/C(=C/c3ccc(O)c(Br)c3)OC2=O)cc1	670
COc1ccc(N2C(=O)S/C(=C\c3ccc(O)c(Br)c3)C2=O)cc1	90
COc1ccc(-n2cnn(Cc3ccc(O)c(Br)c3)c2=O)cc1	5700
COc1ccc(N2C(=O)O/C(=C\c3ccc(O)c(Br)c3)C2=O)cc1	23
COc1ccc(N2C(=O)/C(=C/c3ccc(O)c(Br)c3)OC2=S)cc1	13
COc1ccc(-n2cc(Cc3ccc(O)c(Br)c3)sc2=O)cc1	570
COc1ccc(N2C(=O)/C(=C/c3ccc(O)c(Br)c3)SC2=S)cc1	14
